Tested on: MDA-MB-435
Assay name: NCI single dose (10 µM) SRB screen
Assay type: cell-based, human
Run parameters: melanoma, 48 h
Property measured: GI% MDA-MB-435

The recorded GI% MDA-MB-435 for entry CCOC(=O)C1=C(C)NC(C)=C(C(=O)OCc2ccccc2)C1c1cccc(C#N)c1 (racemic) [Compound 2l] equals 110%

====

System: ACHN
Assay name: NCI single dose (10 µM) SRB screen
Assay type: cell-based, human
Run parameters: renal cancer, 48 h
Property measured: GI% ACHN

# Compound, Endpoint result
records = [
    ("CC1=C(C(=O)OCc2ccccc2)C(c2cccc(C#N)c2)C(C(=O)OCc2ccccc2)=C(C)N1", "52%"),
]

Please turn your attention to the following entry.
The recorded GI% ACHN for entry CCOC(=O)C1=C(C)NC(C)=C(C(=O)OCc2ccccc2)C1c1cccc(C#N)c1 (racemic) equals 52%

====

System: M14
Assay name: NCI single dose (10 µM) SRB screen
Type: cell-based, human
Run parameters: melanoma, 48 h
Entries and their measured GI% M14 follow.

Here's what some known entries look like.
# Molecule, GI% M14
records = [
    ("COC(=O)C1=C(C)NC(C)=C(C(=O)OCc2ccccc2)C1c1cccc(C#N)c1 (racemic)", "15%"),
    ("CC1=C(C(=O)OCc2ccccc2)C(c2cccc(C#N)c2)C(C(=O)OCc2ccccc2)=C(C)N1", "35%"),
]

Please turn your attention to the following entry.
The recorded GI% M14 for entry CCOC(=O)C1=C(C)NC(C)=C(C(=O)OCc2ccccc2)C1c1cccc(C#N)c1 (racemic) equals 85%

====

System: NCI 60 cancer cell lines
Assay name: NCI single dose (10 µM) SRB screen, mean over panel
Format: cell-based, human
Run parameters: mean over 60 cell lines, 48 h
Property measured: Mean GI% (%)
Give your result in % as a bare value.

Here's what some known entries look like.
# Compound, Endpoint result
measured = [
    ("CC1=C(C(=O)OCc2ccccc2)C(c2cccc(C#N)c2)C(C(=O)OCc2ccccc2)=C(C)N1 [Compound 1g]", 41),
    ("CC1=C(C(=O)OCC(C)C)C(c2cccc(C#N)c2)C(C(=O)OCC(C)C)=C(C)N1 [Compound 1d]", 19),
    ("COC(=O)C1=C(C)NC(C)=C(C(=O)OC(C)C)C1c1cccc(C#N)c1 (racemic) [Compound 2a]", 0),
    ("CC1=C(C(=O)OC(C)(C)C)C(c2cccc(C#N)c2)C(C(=O)OC(C)(C)C)=C(C)N1 [Compound 1e]", 14),
    ("CCOC(=O)C1=C(C)NC(C)=C(C(=O)OC(C)C)C1c1cccc(C#N)c1 (racemic) [Compound 2h]", 0),
]

The recorded Mean GI% for entry COCCOC(=O)C1=C(C)NC(C)=C(C(=O)OC)C1c1cccc(C#N)c1 (racemic) [Compound 2d] equals −2

The recorded Mean GI% for entry COC(=O)C1=C(C)NC(C)=C(C(=O)OC(C)(C)C)C1c1cccc(C#N)c1 (racemic) [Compound 2c] equals 0

The recorded Mean GI% for entry CCOC(=O)C1=C(C)NC(C)=C(C(=O)OCc2ccccc2)C1c1cccc(C#N)c1 (racemic) [Compound 2l] equals 64

====

Entries and their measured GI% ACHN follow.
Tested on: ACHN
Assay name: NCI single dose (10 µM) SRB screen
Assay type: cell-based, human
Run parameters: renal cancer, 48 h

# Molecule, GI% ACHN
records = [
    ("COC(=O)C1=C(C)NC(C)=C(C(=O)OCc2ccccc2)C1c1cccc(C#N)c1 (racemic)", "28%"),
]

Please turn your attention to the following entry.
I looked up CC1=C(C(=O)OC(C)(C)C)C(c2cccc(C#N)c2)C(C(=O)OC(C)(C)C)=C(C)N1 and its GI% ACHN for ACHN was 14%

====

Test system: A498
Assay name: NCI single dose (10 µM) SRB screen
Type: cell-based, human
Run parameters: renal cancer, 48 h
Property measured: GI% A498 (%)
Give your result in % as a bare value.

The recorded GI% A498 for entry CC1=C(C(=O)OCC(C)C)C(c2cccc(C#N)c2)C(C(=O)OCC(C)C)=C(C)N1 equals 17

The recorded GI% A498 for entry CCOC(=O)C1=C(C)NC(C)=C(C(=O)OC(C)C)C1c1cccc(C#N)c1 (racemic) equals 16

The recorded GI% A498 for entry CC1=C(C(=O)OCc2ccccc2)C(c2cccc(C#N)c2)C(C(=O)OCc2ccccc2)=C(C)N1 equals 21

The recorded GI% A498 for entry COC(=O)C1=C(C)NC(C)=C(C(=O)OC(C)C)C1c1cccc(C#N)c1 (racemic) equals 11

The recorded GI% A498 for entry CCOC(=O)C1=C(C)NC(C)=C(C(=O)OCCOC)C1c1cccc(C#N)c1 (racemic) equals 21

====

Tested on: ACHN
Assay name: NCI single dose (10 µM) SRB screen
Format: cell-based, human
Run parameters: renal cancer, 48 h
Property measured: GI% ACHN

The recorded GI% ACHN for entry CC1=C(C(=O)OCC(C)C)C(c2cccc(C#N)c2)C(C(=O)OCC(C)C)=C(C)N1 equals 16%

====

System: Aspergillus flavus
Assay name: Agar well diffusion method
Run parameters: relative to clotrimazole
Entries and their measured % activity index, A. flavus follow.
Give your result in % as a bare value.

# Molecule, % activity index, A. flavus (%)
measured = [
    ("CC1=C(C(=O)OCc2ccccc2)C(c2cccc(C#N)c2)C(C(=O)OCc2ccccc2)=C(C)N1 [Compound 1g]", 56),
]

The recorded % activity index, A. flavus for entry COC(=O)C1=C(C)NC(C)=C(C(=O)OC)C1c1cccc(C#N)c1 [Compound 1a] equals 60

====

Test system: T-47D
Assay name: NCI single dose (10 µM) SRB screen
Type: cell-based, human
Run parameters: breast cancer, 48 h
Property measured: GI% T-47D

Here's what some known entries look like.
# Compound, Experimental target, GI% T-47D
measured = [
    ("CC1=C(C(=O)OCc2ccccc2)C(c2cccc(C#N)c2)C(C(=O)OCc2ccccc2)=C(C)N1 [Compound 1g]", "T-47D", "53%"),
    ("CC1=C(C(=O)OC(C)(C)C)C(c2cccc(C#N)c2)C(C(=O)OC(C)(C)C)=C(C)N1 [Compound 1e]", "T-47D", "53%"),
]

Please turn your attention to the following entry.
The recorded GI% T-47D for entry CCOC(=O)C1=C(C)NC(C)=C(C(=O)OCc2ccccc2)C1c1cccc(C#N)c1 (racemic) [Compound 2l] equals 72%

====

Entries and their measured % activity index, B. subtilis follow.
Tested on: Bacillus subtilis
Assay name: Agar well diffusion method
Run parameters: relative to ciprofloxacin
Give your result in % as a bare value.

Here's what some known entries look like.
# Molecule, Property measured, Measure unit, Endpoint result
measured = [
    ("CCOC(=O)C1=C(C)NC(C)=C(C(=O)OCC)C1c1cccc(C#N)c1", "% activity index, B. subtilis", "%", 39.1),
    ("CCOC(=O)C1=C(C)NC(C)=C(C(=O)OC(C)(C)C)C1c1cccc(C#N)c1 (racemic)", "% activity index, B. subtilis", "%", 65.2),
]

The recorded % activity index, B. subtilis for entry COCCOC(=O)C1=C(C)NC(C)=C(C(=O)OC)C1c1cccc(C#N)c1 (racemic) equals 43.5

The recorded % activity index, B. subtilis for entry CC1=C(C(=O)OCc2ccccc2)C(c2cccc(C#N)c2)C(C(=O)OCc2ccccc2)=C(C)N1 equals 47.8

====

Property measured: melting point

The recorded melting point for entry CCOC(=O)C1=C(C)NC(C)=C(C(=O)OC(C)(C)C)C1c1cccc(C#N)c1 (racemic) equals 152 to 153 °C

The recorded melting point for entry CCOC(=O)C1=C(C)NC(C)=C(C(=O)OCC(C)C)C1c1cccc(C#N)c1 (racemic) equals 120 to 121 °C

The recorded melting point for entry COC(=O)C1=C(C)NC(C)=C(C(=O)OCC(C)C)C1c1cccc(C#N)c1 (racemic) equals 133 to 135 °C

The recorded melting point for entry COC(=O)C1=C(C)NC(C)=C(C(=O)OC(C)(C)C)C1c1cccc(C#N)c1 (racemic) equals 157 to 159 °C

The recorded melting point for entry CC1=C(C(=O)OC(C)(C)C)C(c2cccc(C#N)c2)C(C(=O)OC(C)(C)C)=C(C)N1 equals 166 to 168 °C

The recorded melting point for entry COCCOC(=O)C1=C(C)NC(C)=C(C(=O)OC)C1c1cccc(C#N)c1 (racemic) equals 127 to 128 °C

The recorded melting point for entry CCOC(=O)C1=C(C)NC(C)=C(C(=O)OCC)C1c1cccc(C#N)c1 equals 144 to 146 °C

The recorded melting point for entry CCOC(=O)C1=C(C)NC(C)=C(C(=O)OC(C)C)C1c1cccc(C#N)c1 (racemic) equals 136 to 138 °C

====

Tested on: OVCAR-8
Assay name: NCI single dose (10 µM) SRB screen
Format: cell-based, human
Run parameters: ovarian cancer, 48 h
Entries and their measured GI% OVCAR-8 follow.

# Compound, Experimental target, GI% OVCAR-8
data = [
    ("CC1=C(C(=O)OCC(C)C)C(c2cccc(C#N)c2)C(C(=O)OCC(C)C)=C(C)N1", "OVCAR-8", "11%"),
    ("COC(=O)C1=C(C)NC(C)=C(C(=O)OCc2ccccc2)C1c1cccc(C#N)c1 (racemic)", "OVCAR-8", "34%"),
    ("CCOC(=O)C1=C(C)NC(C)=C(C(=O)OCc2ccccc2)C1c1cccc(C#N)c1 (racemic)", "OVCAR-8", "51%"),
]

Please turn your attention to the following entry.
The recorded GI% OVCAR-8 for entry CC1=C(C(=O)OCc2ccccc2)C(c2cccc(C#N)c2)C(C(=O)OCc2ccccc2)=C(C)N1 equals 41%
